Biological target: T1, rat NPRA (rat, UniProt P18910 29-1057)
T1 sequence (looked up): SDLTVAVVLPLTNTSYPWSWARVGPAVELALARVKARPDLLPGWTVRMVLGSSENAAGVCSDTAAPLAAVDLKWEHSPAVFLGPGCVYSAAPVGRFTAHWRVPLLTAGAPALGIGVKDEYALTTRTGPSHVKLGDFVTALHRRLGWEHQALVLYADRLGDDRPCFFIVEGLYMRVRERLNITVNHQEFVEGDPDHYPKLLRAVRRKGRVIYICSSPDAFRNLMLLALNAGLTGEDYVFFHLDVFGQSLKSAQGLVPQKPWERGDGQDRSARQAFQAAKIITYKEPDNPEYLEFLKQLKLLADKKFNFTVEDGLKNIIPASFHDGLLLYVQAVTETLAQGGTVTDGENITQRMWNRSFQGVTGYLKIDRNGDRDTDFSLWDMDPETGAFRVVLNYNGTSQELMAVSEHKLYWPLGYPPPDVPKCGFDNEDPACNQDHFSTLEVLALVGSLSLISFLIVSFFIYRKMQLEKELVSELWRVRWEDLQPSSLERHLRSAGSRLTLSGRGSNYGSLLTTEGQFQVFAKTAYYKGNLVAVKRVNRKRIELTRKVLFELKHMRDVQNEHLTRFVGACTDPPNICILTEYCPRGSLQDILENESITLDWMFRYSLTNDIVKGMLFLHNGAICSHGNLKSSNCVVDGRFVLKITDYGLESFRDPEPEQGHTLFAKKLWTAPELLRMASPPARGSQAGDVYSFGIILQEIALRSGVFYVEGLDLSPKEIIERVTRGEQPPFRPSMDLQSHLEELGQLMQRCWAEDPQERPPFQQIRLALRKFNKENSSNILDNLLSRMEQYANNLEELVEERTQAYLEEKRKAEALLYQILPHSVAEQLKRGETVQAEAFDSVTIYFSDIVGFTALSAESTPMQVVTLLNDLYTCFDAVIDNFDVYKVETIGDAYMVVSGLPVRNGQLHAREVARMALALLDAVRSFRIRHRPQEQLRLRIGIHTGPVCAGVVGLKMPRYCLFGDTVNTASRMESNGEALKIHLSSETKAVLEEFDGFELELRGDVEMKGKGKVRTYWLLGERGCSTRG
Experiment: cell-based or functional assay
Numbered stars: 1 amine (or outer) side, 2 acyl side, 3 side chain; on linkers, the order of the positions; unused ones are H or OH. Bridge positions count the residues as written; N and C are the ends. Square brackets hold non-standard residues; d marks the D form. * marks the point of attachment. thioacetal = thioacetal linkage between two cysteines (intrachain bond at the bracketed Cys); C20 diacid = O=C(O)CCCCCCCCCCCCCCCCCCC(=O)*; γGlu = O=C(O)[C@H](CCC(=O)[*:2])N[*:1]; 4Pal = N[C@@H](Cc1ccncc1)C(=O)O; Aib = CC(C)(N)C(=O)O; βAla = NCCC(=O)O
Label True when cGMP Assay (EC50, pM) w/Casein is at or above 2000 pM; otherwise label False.

1. EKXRSSCFGKRIDRIGHQSGLGCPSFRHGGKSSGAPPPS (HOOC-(CH2)18-CO-(γGlu)-EKEKEKG-(AEEA)6-EK-βAla-RSS[CFGKRIDRIGHQSGLGC]PSFRHGGKSSGAPPPS-NH2; thioacetal linkage between the bracketed Cys) [Example 89] ... True
2. {C20 diacid}-[γGlu]EKEKEKGEK[βAla]RSSCFGGRIDRIGHYSGLGCPSFRHGPSSGAPPPS-NH2 (bridge 15-31 via thioacetal) [Example 60] ... True
3. {C20 diacid}-[γGlu]EKEKEKGEK[βAla]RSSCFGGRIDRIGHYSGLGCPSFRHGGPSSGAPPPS-NH2 (bridge 15-31 via thioacetal) [Example 56] ... True
4. XEKEKEKGEKPRSSCFGGRIDRIGHYSGLGCPSFRHGGPSSGAPPPS (HOOC-(CH2)18-CO-(γGlu)-EKEKEKGEKPRSS[CFGGRIDRIGHYSGLGC]PSFRHGGPSSGAPPPS-NH2; disulfide linkage between the bracketed Cys) [Example 55] ... False

Proceed to the following item.
Input: Would you say {C20 diacid}-[γGlu]EKEKEKGS[4Pal]RRSSCFGGRIDRIGHQSGLGCPSFRHGGPPS[Aib]KPPPK-NH2 (bridge 15-31 via thioacetal) [Example 71] shows cGMP Assay (EC50, pM) w/Casein at minimum 2000 pM?
Output: True
